- assay target: SHP2-C SH2
- assay details: SH2 binding enrichment of the phosphorylated peptide, bacterial display (enrichment ratio); higher = better substrate or ligand; peptides without Tyr show the background
Provide the reported SH2 binding enrichment of each item.

Input: Recall and state the measured SH2 binding enrichment for PGLKGYPGLSG [COL4A2_Y306_R304K] .
Output: 0.504

Input: Please look at this sequence and report its SH2 binding enrichment: IMAFFYMCDRA [CASD1_Y382_YF]
Output: 0.825

Input: Entry SVTCTYSPALH [TP53_Y126_N131H] needs its SH2 binding enrichment filled in; supply it.
Output: 0.532

Input: Identify SH2 binding enrichment associated with the sequence KGEPQYSSHSS [SIPA1L3_Y1265]
Output: 0.408

Input: Input HESEIYCKVCY [CSRP3_Y57] , output reported SH2 binding enrichment.
Output: 1.81

Input: Give the reported SH2 binding enrichment for this sequence. SFPSTYRFERG [INPPL1_Y661_P659S_YF]
Output: 0.655

Input: Check the records and state SH2 binding enrichment for PLGPLYASSNT [INSR_Y992_P997T]
Output: 1.1

---

- assay target: c-Src SH2
- assay details: SH2 binding enrichment of the phosphorylated peptide, bacterial display (enrichment ratio); higher = better substrate or ligand; peptides without Tyr show the background
Provide the recorded SH2 binding enrichment for the entries that follow.

Input: Identify SH2 binding enrichment associated with the sequence SSNLFYRWLTA [CNGA3_Y169_YF]
Output: 0.466

Input: Specify measured SH2 binding enrichment for RAQIRYAQEHD [NSD1_Y1987_R1984Q] .
Output: 0.409

Input: For the sequence VGTKRYMAPKV [ACVRL1_Y375_E379K] , report SH2 binding enrichment.
Output: 0.632

Input: Input GRVFVYRLSEQ [ITGAE_Y551_YF] , output reported SH2 binding enrichment.
Output: 0.857

Input: Read the entry QKPLGYFRVNL [GALE_Y104_D103G_YF] and write its reported SH2 binding enrichment.
Output: 1.09

Input: // fetch SH2 binding enrichment given entry NVSILYTASQA [CTNNA1_Y222_P219S]
Output: 0.499

Input: In one line, give reported SH2 binding enrichment of the entry ATPKGYELDAS [OTC_Y223_P225L] .
Output: 0.627

Input: Look up and state reported SH2 binding enrichment for RYLKDYGEFEV [GINS1_Y156_C152Y]
Output: 0.593

Input: Input LAARFYNWVCF [FLT4_Y1231_S1235C_YF] , output reported SH2 binding enrichment.
Output: 1.02

Input: Give SH2 binding enrichment for CGTPTCLAPEV [CHEK2_Y390_Y390C]
Output: 0.608

Input: State its SH2 binding enrichment: VQVAYYTMMMN [SPATA17_Y84]
Output: 1.56

Input: Retrieve SH2 binding enrichment measured for DLTQDYEEWKR [ORC6_Y232] and print it.
Output: 0.55

Input: Provide measured SH2 binding enrichment value, entry: WFQTKYEELQV [KRT6B_Y360_I365V_YF]
Output: 8.95

Input: // Input: IPGGIYDADLN [CST4_Y35] . Output its SH2 binding enrichment only.
Output: 0.823

Input: Supply recorded SH2 binding enrichment for YGMQLYQKYMH [GRB14_Y347_N349K] here.
Output: 0.548

Input: Supply reported SH2 binding enrichment belonging to this sequence: GAAMLYFPSVS [GPR143_Y177_YF]
Output: 0.503

Input: Supply SH2 binding enrichment value. Item: RLSVDYSKKSK [TUBA3E_Y161]
Output: 0.387

Input: Give recorded SH2 binding enrichment. QKDTFYGLRSL [IGSF10_Y126]
Output: 0.439

Input: Give the measured SH2 binding enrichment for IKSSIYDNRKE [ARAP2_Y380]
Output: 0.445

Input: Provide measured SH2 binding enrichment value, entry: VYSIDYYRVGG [NTRK2_Y706_T704I]
Output: 2

Input: In one line, give reported SH2 binding enrichment of the entry MAYDRYAAICS [OR8H2_Y123_H120Y] .
Output: 2.79

Input: For the sequence LPEHPYHSRPR [NDUFA8_Y142_N140H] , report SH2 binding enrichment.
Output: 0.704

Input: Identify the reported SH2 binding enrichment for the following entry. GGSDRYGSLRP [MYLK_Y846]
Output: 0.428

Input: Kindly indicate its recorded SH2 binding enrichment. Item: GREEFYVHYVG [KAT8_Y90]
Output: 0.644

Input: Identify measured SH2 binding enrichment associated with EQLGEYKFQNA [ALB_Y425]
Output: 0.518

Input: Assign SH2 binding enrichment to the following record: KPPPTYESEEE [BRD4_Y599]
Output: 0.728

Input: Please report SH2 binding enrichment for the following sequence: VTNHIYTWVDP [DFNB31_Y234]
Output: 1.05

Input: Please list SH2 binding enrichment recorded for the sequence FEEVVYQAMEE [TACC3_Y684]
Output: 0.504

Input: Write down SH2 binding enrichment measured for item INQGPYENRSV [ATP6V1B1_Y462]
Output: 0.532

---

- assay target: Jak2 (UniProt O60674)
- Sequence (O60674 whole entry, looked up): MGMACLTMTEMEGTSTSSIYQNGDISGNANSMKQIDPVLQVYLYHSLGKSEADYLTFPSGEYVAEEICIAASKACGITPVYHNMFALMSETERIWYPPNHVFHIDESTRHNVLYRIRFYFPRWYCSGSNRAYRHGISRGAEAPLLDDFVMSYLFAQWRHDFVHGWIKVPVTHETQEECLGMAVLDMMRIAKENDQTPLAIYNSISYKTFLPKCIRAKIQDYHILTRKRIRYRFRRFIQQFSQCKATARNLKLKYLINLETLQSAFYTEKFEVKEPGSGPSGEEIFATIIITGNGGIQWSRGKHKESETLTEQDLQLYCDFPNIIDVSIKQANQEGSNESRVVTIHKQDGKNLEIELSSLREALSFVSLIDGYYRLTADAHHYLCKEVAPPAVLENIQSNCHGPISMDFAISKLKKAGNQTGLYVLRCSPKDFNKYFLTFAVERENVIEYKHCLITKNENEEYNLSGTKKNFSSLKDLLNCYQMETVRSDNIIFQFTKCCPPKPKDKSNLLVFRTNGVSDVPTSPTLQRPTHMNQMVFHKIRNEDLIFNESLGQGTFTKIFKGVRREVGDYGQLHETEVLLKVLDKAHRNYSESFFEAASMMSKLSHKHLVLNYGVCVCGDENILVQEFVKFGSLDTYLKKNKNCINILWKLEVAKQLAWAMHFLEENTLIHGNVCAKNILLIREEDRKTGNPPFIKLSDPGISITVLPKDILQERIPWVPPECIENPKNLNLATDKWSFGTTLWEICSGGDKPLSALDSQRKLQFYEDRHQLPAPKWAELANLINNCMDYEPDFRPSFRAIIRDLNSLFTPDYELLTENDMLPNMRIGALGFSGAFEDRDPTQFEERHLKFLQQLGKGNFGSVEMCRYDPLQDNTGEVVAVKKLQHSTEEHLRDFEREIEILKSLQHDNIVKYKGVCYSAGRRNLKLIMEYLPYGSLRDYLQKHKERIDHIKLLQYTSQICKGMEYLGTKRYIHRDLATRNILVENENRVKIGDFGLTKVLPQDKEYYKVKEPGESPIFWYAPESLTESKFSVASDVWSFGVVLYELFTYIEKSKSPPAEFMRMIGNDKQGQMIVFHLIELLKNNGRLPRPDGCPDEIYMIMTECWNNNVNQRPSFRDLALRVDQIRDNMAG
- assay details: phosphorylation enrichment, bacterial display (enrichment ratio); higher = better substrate or ligand; peptides without Tyr show the background
Decide by phosphorylation enrichment: equal to or exceeding 2 means satisfied, less means not satisfied.

Input: Identify whether the reported phosphorylation enrichment of the following sequence is 2 or greater: KIMVIYDGACQ [VWDE_Y1035_T1032M]
Output: not satisfied

Input: Does RLNWIYYKDQT [RS1_Y165] have a reported phosphorylation enrichment of at least 2?
Output: not satisfied

Input: Decide: is the reported value of phosphorylation enrichment for MASTSYDFCRV [BST2_Y6_YF] equal to or greater than 2?
Output: not satisfied

Input: For this sequence, is measured phosphorylation enrichment 2 or higher? ARLEYYENEKK [IRS1_Y47]
Output: not satisfied

Input: Check the entry EHEALYLEADL [CENPF_Y1920] : does phosphorylation enrichment equal or exceed 2?
Output: not satisfied

Input: Exam item: decide whether the reported phosphorylation enrichment for QMIETYFDFRV [NSMF_Y506_L511V] is at least 2.
Output: satisfied

Input: Say whether EAKENYGKTLK [CHL1_Y291_T287A] shows phosphorylation enrichment of 2 or more.
Output: not satisfied

Input: Textbook exercise: given the entry TNLVPYPRIHF [TUBA1A_Y262] , state whether its phosphorylation enrichment is greater than or equal to 2.
Output: not satisfied

Input: hey, is phosphorylation enrichment for this one >= 2? QRVLLYVQRET [GRHL3_Y518_R520Q]
Output: not satisfied

Input: Confirm if phosphorylation enrichment reported for the sequence NFNPNYCFAGK [ALK_Y1096_D1091N_YF] is 2 or above.
Output: not satisfied

Input: Would you say RPIEVYLCPEE [E2F3_Y349_G344R] shows phosphorylation enrichment at minimum 2?
Output: satisfied

Input: Can PYADPYYDYEI [ZC3H18_Y371] be said to have phosphorylation enrichment at or above 2?
Output: satisfied

Input: Item ENAGFYFQVSA with phosphorylation enrichment of 2 or above?
Output: not satisfied

Input: Record PDSVDYRKKGY [CTSK_Y121] ; criterion: phosphorylation enrichment no lower than 2. Met?
Output: not satisfied

---

- assay target: MERTK (UniProt Q12866)
- Sequence (Q12866 whole entry, looked up): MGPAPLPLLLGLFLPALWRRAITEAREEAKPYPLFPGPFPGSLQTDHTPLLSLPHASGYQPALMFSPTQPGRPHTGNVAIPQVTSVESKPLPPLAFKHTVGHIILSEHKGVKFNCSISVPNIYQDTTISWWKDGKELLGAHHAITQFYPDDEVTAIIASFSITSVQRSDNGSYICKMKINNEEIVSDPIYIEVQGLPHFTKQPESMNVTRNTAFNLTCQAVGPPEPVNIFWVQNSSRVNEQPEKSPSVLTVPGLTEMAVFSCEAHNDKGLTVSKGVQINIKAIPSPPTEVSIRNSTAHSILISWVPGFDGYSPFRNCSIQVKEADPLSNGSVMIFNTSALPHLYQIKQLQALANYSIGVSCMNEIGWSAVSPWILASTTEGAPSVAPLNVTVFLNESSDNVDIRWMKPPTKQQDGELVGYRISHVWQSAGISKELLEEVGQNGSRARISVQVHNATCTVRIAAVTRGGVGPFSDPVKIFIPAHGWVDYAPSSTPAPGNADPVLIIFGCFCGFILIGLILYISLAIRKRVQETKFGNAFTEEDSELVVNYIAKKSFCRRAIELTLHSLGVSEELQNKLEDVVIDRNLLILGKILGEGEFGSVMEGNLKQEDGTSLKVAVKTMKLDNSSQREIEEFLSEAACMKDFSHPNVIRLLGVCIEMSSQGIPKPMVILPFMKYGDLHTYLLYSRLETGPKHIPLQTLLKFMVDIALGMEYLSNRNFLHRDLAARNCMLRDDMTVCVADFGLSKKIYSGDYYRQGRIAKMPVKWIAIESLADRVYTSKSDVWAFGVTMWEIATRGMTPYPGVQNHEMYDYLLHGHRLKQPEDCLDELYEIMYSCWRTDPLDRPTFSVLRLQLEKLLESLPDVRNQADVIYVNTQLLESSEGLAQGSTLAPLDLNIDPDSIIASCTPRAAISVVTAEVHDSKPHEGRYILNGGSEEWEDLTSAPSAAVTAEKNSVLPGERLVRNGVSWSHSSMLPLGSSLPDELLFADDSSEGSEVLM
- assay details: phosphorylation enrichment, bacterial display (enrichment ratio); higher = better substrate or ligand; peptides without Tyr show the background
Please use satisfied whenever phosphorylation enrichment is not below 0.6, and not satisfied whenever it is.

Input: State whether the measured phosphorylation enrichment reaches 0.6, counting equality as reaching it, for CTTILYNFMCN [TP53_Y234_H233L_YF]
Output: satisfied

Input: Record PPPPAYDDVAQ [TNK2_Y635] ; criterion: phosphorylation enrichment no lower than 0.6. Met?
Output: satisfied

Input: In plain terms: is recorded phosphorylation enrichment at least 0.6 for QVQQIYSDSDL [MIB1_Y376_R371Q] ?
Output: satisfied

Input: Record YSKTQYNQVPR [CXADR_Y318_S323R] ; criterion: phosphorylation enrichment no lower than 0.6. Met?
Output: not satisfied

Input: // inclusive: phosphorylation enrichment at least 0.6? input: QRIHNYFEHRF [HCN4_Y554_D553N_YF]
Output: not satisfied

Input: Please check the record AKKKMYSRKTK [AGXT_Y231] and state if its phosphorylation enrichment is at or above 0.6.
Output: not satisfied

Input: Check this sequence for phosphorylation enrichment at or above 0.6: SHNKYYMLVAR [MFSD8_Y134]
Output: satisfied

Input: Could you please find out whether FDKEFYSVHNK [MET_Y1235_YF] has phosphorylation enrichment that meets 0.6 or exceeds it?
Output: satisfied

Input: Could you verify whether the entry FFRKVYHLASV [RBL1_Y796_YF] shows phosphorylation enrichment of no less than 0.6?
Output: not satisfied

Input: Answer whether phosphorylation enrichment of NNRVFYGNSDR [RS1_Y177] is greater than or equal to 0.6.
Output: not satisfied

Input: Answer whether phosphorylation enrichment of GLNKGYRMVVN [HINT1_Y94] is greater than or equal to 0.6.
Output: not satisfied

Input: Exam item: decide whether the reported phosphorylation enrichment for SRIWVYNHYRW [BRCA2_Y2621] is at least 0.6.
Output: not satisfied

Input: Check the entry NTGDFCDLFGG [PTPN11_Y63_Y63C_YF] : does phosphorylation enrichment equal or exceed 0.6?
Output: not satisfied

Input: Could you please find out whether SSMSDYNPLEK [MYOC_Y479_I477S] has phosphorylation enrichment that meets 0.6 or exceeds it?
Output: not satisfied

Input: hey, is phosphorylation enrichment for this one >= 0.6? PSDPSYEDMRE [BMPR1A_Y467]
Output: not satisfied

Input: Check this sequence for phosphorylation enrichment at or above 0.6: RHLREYQDLLN [DES_Y388]
Output: not satisfied

Input: Has LIDTVYSSSSA [OR4C12_Y71] a recorded phosphorylation enrichment greater than or equal to 0.6?
Output: satisfied

Input: Does EWLRRYLENGK [HLA-A_Y195] have a reported phosphorylation enrichment of at least 0.6?
Output: not satisfied

Input: Reported phosphorylation enrichment at or above 0.6? WGTAEYDSVVA [MAP1A_Y1883]
Output: not satisfied

Input: Tell me whether phosphorylation enrichment is at least 0.6 here: ENGPYYTSYPP [GDAP2_Y488]
Output: satisfied

Input: API: above_or_equal(metric=phosphorylation enrichment, cutoff=0.6) for item LYEDCYLLGTS [ASS1_Y87_R86C]
Output: satisfied

Input: Could you please find out whether RTLIRYANLSN [BEST1_Y131_G135S] has phosphorylation enrichment that meets 0.6 or exceeds it?
Output: satisfied

Input: Is it the case that VHFLVYHHHHH [CACNA1H_Y519_H516Y_YF] has phosphorylation enrichment reaching or exceeding 0.6?
Output: not satisfied

Input: Given the entry KAIMIYVSSFF [ACTN4_Y260_T259I_YF] , answer whether its phosphorylation enrichment meets or surpasses 0.6.
Output: not satisfied

The reported measurements were obtained from the supplement of paper PMC10065799.
